recordedConditions: in isopropanol, 298.15 K
measurementLabel: solubility (mole fraction)
// print number alone

May I ask what solubility (mole fraction) has been recorded for c1ccc(-n2c3ccccc3c3ccccc32)cc1 ?
0.00303

====

recordedConditions: in cyclohexane, 298.15 K
measurementLabel: solubility (mole fraction)
Hey, just send me the number, nothing else.

# solubility (mole fraction) lookup, item c1ccc(-n2c3ccccc3c3ccccc32)cc1
0.0691

====

recordedConditions: in cyclohexane, 308.15 K
measurementLabel: solubility (mole fraction)
Number only, please.

What value of solubility (mole fraction) has been reported for the following molecule? c1ccc(-n2c3ccccc3c3ccccc32)cc1
0.101

====

recordedConditions: in ethanol, 298.15 K
measurementLabel: solubility (mole fraction)

Suppose we examine the compound c1ccc(-n2c3ccccc3c3ccccc32)cc1 ; what solubility (mole fraction) value has been reported?
0.00334

src = BigSolDB 2.1
